Target: CB1 (mutant) (Homo sapiens, UniProt P21554)
Sequence (P21554 1-417, change not shown): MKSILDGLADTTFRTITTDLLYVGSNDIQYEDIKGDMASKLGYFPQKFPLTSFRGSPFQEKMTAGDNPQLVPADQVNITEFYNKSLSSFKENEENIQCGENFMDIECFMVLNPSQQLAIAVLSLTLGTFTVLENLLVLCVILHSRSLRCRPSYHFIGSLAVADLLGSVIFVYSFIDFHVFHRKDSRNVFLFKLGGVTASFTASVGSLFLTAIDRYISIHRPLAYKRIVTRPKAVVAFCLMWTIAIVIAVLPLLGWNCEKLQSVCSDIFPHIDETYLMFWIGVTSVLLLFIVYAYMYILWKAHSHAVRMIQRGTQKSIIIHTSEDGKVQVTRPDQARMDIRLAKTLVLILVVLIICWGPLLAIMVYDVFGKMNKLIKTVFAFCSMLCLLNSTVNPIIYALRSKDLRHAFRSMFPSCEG
Experiment: R-SAT functional receptor assay, CB1 (mutant, truncated after amino acid 417)
Type: cell-based
Conditions: pIC50, Appendix A; R-SAT CB1; receptor form (mutant or wild-type) not stated
pIC50: −log10 of the molar value.
Reported Endpoint: pIC50

# Compound, Reported Endpoint, Meas Value
rows = [
    ("Cc1ccsc1C1=Nc2cc(C(=O)NC3CCC(F)(F)CC3)ccc2Sc2ccccc21 [drawing 620]", "pIC50", 7.20),
    ("O=C(NCCc1ccccc1)c1ccc2c(c1)N=C(c1cccc(Cl)c1)c1ccccc1S2 [drawing 731]", "pIC50", 8.10),
    ("O=C(NC1CCCC1)c1ccc2c(c1)N=C(c1ccc(F)cc1)c1ccccc1S2 [drawing 720]", "pIC50", 7.10),
    ("O=C(NN1CCCCCC1)c1ccc2c(c1)N=C(c1cccc(F)c1)c1ccccc1S2 [drawing 883]", "pIC50", 7.80),
    ("CCN(CCNC(=O)c1ccc2c(c1)N=C(c1cccc(Cl)c1)c1ccccc1S2)c1ccccc1 [drawing 713]", "pIC50", 8.10),
    ("Cc1ccc(CNC(=O)c2ccc3c(c2)N=C(c2cccc(F)c2)c2ccccc2S3)o1 [drawing 947]", "pIC50", 7.70),
    ("CCCCNC(=O)c1ccc2c(c1)N=C(c1ccc(F)cc1)c1ccccc1S2 [drawing 785]", "pIC50", 8.00),
    ("O=C(NCc1ccco1)c1ccc2c(c1)N=C(c1ccccc1F)c1ccccc1S2 [drawing 859]", "pIC50", 7.90),
    ("CC(C)CNC(=O)c1ccc2c(c1)N=C(c1ccc(Br)cc1)c1ccccc1S2 [drawing 781]", "pIC50", 8.00),
    ("O=C(NC1CCC(F)(F)CC1)c1ccc2c(c1)N=C(c1cccc(Cl)c1)c1ccccc1S2 [drawing 699]", "pIC50", 8.10),
    ("COc1cccc(C2=Nc3cc(C(=O)NC4CCC(F)(F)CC4)ccc3Sc3ccccc32)n1 [drawing 653]", "pIC50", 8.20),
    ("O=C(NN1CCCCC1)c1ccc2c(c1)N=C(c1ccccc1F)c1ccccc1S2", "pIC50", 7.00),
    ("O=C(NN1CCCCCC1)c1ccc2c(c1)N=C(c1sccc1Cl)c1ccccc1S2", "pIC50", 7.70),
    ("O=C(NN1CCCCC1)c1ccc2c(c1)N=C(c1cccc(F)c1)c1ccccc1S2 [drawing 929]", "pIC50", 7.80),
    ("O=C(NCCC(F)(F)F)c1ccc2c(c1)N=C(c1ccc(Cl)cc1)c1ccccc1S2 [drawing 705]", "pIC50", 8.10),
    ("O=C(NCc1ccccc1Cl)c1ccc2c(c1)N=C(c1ccccc1F)c1ccccc1S2 [drawing 622]", "pIC50", 7.20),
    ("O=C(c1ccc2c(c1)N=C(c1ccc(F)cc1)c1ccccc1S2)N1CCCCC1 [drawing 1163]", "pIC50", 7.40),
    ("O=C(NCCC(F)(F)F)c1ccc2c(c1)N=C(c1ccsc1)c1ccccc1S2 [drawing 607]", "pIC50", 8.40),
    ("CCCC1=Nc2cc(C(=O)NC3CCC(C)CC3)ccc2Sc2ccccc21 (centres unmarked) [drawing 975]", "pIC50", 7.70),
    ("O=C(NN1CCCCC1)c1ccc2c(c1)N=C(c1cccc(Br)c1)c1ccccc1S2 [drawing 723]", "pIC50", 8.10),
    ("O=C(NCc1ccncc1)c1ccc2c(c1)N=C(c1ccc(Br)cc1)c1ccccc1S2 [drawing 586]", "pIC50", 7.30),
    ("CC(C)CNC(=O)c1ccc2c(c1)N=C(c1ccc(Cl)cc1)c1ccccc1S2 [drawing 741]", "pIC50", 8.10),
    ("CCCCNC(=O)c1ccc2c(c1)N=C(c1ccc(Cl)cc1)c1ccc(Cl)cc1S2 [drawing 766]", "pIC50", 7.00),
    ("O=C(NCCc1cccnc1)c1ccc2c(c1)N=C(c1cccc(F)c1)c1ccccc1S2 [drawing 981]", "pIC50", 7.70),
    ("Cc1ccc(CNC(=O)c2ccc3c(c2)N=C(c2ccc(Cl)cc2)c2ccccc2S3)o1 [drawing 1141]", "pIC50", 7.40),
    ("CCCCN(C)C(=O)c1ccc2c(c1)N=C(c1cccc(Cl)c1)c1ccccc1S2", "pIC50", 7.10),
    ("Cc1ccsc1C1=Nc2cc(C(=O)NN3[C@H](C)CCC[C@@H]3C)ccc2Sc2ccccc21 [drawing 772]", "pIC50", 7.00),
    ("CCCC1=Nc2cc(C(=O)NCc3ccccc3OC)ccc2Sc2ccccc21", "pIC50", 7.20),
    ("CCCC1=Nc2cc(C(=O)NC3CCCC(C)C3C)ccc2Sc2ccccc21 (centres unmarked) [drawing 1115]", "pIC50", 7.40),
    ("O=C(NN1CCCCC1)c1ccc2c(c1)N=C(c1ccc(Cl)s1)c1ccccc1S2 [drawing 823]", "pIC50", 7.90),
    ("O=C(NCCc1ccc(Cl)cc1)c1ccc2c(c1)N=C(c1ccccc1F)c1ccccc1S2 [drawing 1085]", "pIC50", 7.50),
    ("O=C(NCCCc1ccccc1)c1ccc2c(c1)N=C(c1ccc(Cl)cc1)c1ccccc1S2 [drawing 645]", "pIC50", 8.30),
]

Where do the numbers come from? From patent US20080090805A1.
